- Species: Homo sapiens
- PROTOCOL: Selectivity for human DAT over human SERT
Would you please tag the item rule met when its Ratio Ki is 400 or above, and rule not met when it is below?

Reported Ratio Ki reaches at least 400 for `O=C(OCCF)C1=C(c2ccc(Cl)c(Cl)c2)CCC1` ?
rule met

Please check the record `CCN(CC)C(=O)C1=C(c2ccc(Cl)c(Cl)c2)CCC1` and state if its Ratio Ki is at or above 400.
rule not met

State whether the measured Ratio Ki reaches 400, counting equality as reaching it, for `O=C(NCc1ccco1)C1=C(c2ccc(Cl)c(Cl)c2)CCC1`
rule met

Does the compound `O=C(OCc1ccco1)C1=C(c2ccc(Cl)c(Cl)c2)CCC1` have recorded Ratio Ki that is 400 or more?
rule not met

Could you please find out whether `O=C(C1=C(c2ccc(Cl)c(Cl)c2)CCC1)N1CCCC1` has Ratio Ki that meets 400 or exceeds it?
rule not met

Is the recorded value of Ratio Ki equal to or greater than 400 for this compound? `CON(C)C(=O)C1=C(c2ccc(Cl)c(Cl)c2)CCC1`
rule not met

Could you please find out whether `Cc1cccc(OC(=O)C2=C(c3ccc(Cl)c(Cl)c3)CCC2)c1` has Ratio Ki that meets 400 or exceeds it?
rule met

Determine whether measured Ratio Ki meets or exceeds 400 for `O=C(OCCO)C1=C(c2ccc(Cl)c(Cl)c2)CCC1`
rule not met

Reported Ratio Ki at or above 400? `CC(C)OC(=O)C1=C(c2ccc(Cl)c(Cl)c2)CCC1`
rule not met

API: above_or_equal(metric=Ratio Ki, cutoff=400) for item `Cc1ccccc1OC(=O)C1=C(c2ccc(Cl)c(Cl)c2)CCC1`
rule met

Item `CONC(=O)C1=C(c2ccc(Cl)c(Cl)c2)CCC1` with Ratio Ki of 400 or above?
rule met

Hi, just wondering whether `O=C(Oc1ccccc1)C1=C(c2ccc(Cl)c(Cl)c2)CCC1` shows Ratio Ki of 400 or higher.
rule met

Hello, I need to know if `O=C(NCCF)C1=C(c2ccc(Cl)c(Cl)c2)CCC1` has measured Ratio Ki not below 400. Thanks!
rule met

Reported Ratio Ki at or above 400? `O=C(OCc1cccs1)C1=C(c2ccc(Cl)c(Cl)c2)CCC1`
rule met

Given `O=C(NCc1cccs1)C1=C(c2ccc(Cl)c(Cl)c2)CCC1` , state whether its Ratio Ki is at least 400.
rule met

====

So I've got a bunch of molecules here, and I need their pKi values.
- TEST TARGET: Sodium-dependent serotonin transporter (Homo sapiens, UniProt P31645)
- Sequence (P31645 whole entry): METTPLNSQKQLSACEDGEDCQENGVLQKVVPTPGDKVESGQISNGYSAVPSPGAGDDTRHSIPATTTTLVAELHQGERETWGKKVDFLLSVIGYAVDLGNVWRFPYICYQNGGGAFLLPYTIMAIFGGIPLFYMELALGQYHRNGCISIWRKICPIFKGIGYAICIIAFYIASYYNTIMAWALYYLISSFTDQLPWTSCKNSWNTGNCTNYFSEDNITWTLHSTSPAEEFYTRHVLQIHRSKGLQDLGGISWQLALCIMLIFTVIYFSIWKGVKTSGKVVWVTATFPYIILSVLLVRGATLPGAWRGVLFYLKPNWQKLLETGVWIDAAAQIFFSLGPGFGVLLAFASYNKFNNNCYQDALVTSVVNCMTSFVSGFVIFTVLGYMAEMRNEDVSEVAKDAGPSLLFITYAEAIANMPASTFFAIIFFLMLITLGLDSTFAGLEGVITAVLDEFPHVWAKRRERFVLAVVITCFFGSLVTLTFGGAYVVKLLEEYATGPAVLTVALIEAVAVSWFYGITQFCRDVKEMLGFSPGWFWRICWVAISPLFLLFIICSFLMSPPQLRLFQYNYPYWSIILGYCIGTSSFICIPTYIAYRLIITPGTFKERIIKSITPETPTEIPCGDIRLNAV
- PROTOCOL: Displacement of [125I]RTI55 from human SERT transfected in COS1 cells
In simple prose, pKi is minus the logarithm base ten of a concentration in moles per litre.

Lab note: need pKi for `O=C(NCc1cccs1)C1=C(c2ccc(Cl)c(Cl)c2)CCC1` on Sodium-dependent serotonin transporter (Homo sapiens, UniProt P31645), anyone have it?
3.96

Missing value: pKi, Sodium-dependent serotonin transporter (Homo sapiens, UniProt P31645), entry `O=C(OCc1ccco1)C1=C(c2ccc(Cl)c(Cl)c2)CCC1` . Fill in?
4.62

Query for Sodium-dependent serotonin transporter (Homo sapiens, UniProt P31645): what pKi does the record show for `O=C(OCCF)C1=C(c2ccc(Cl)c(Cl)c2)CCC1` ?
3.41

====

- Species: Homo sapiens
- PROTOCOL: Selectivity for human DAT over human NET
Give Ratio Ki for every item shown.
Lab note: write the figure by itself, no unit.

Fill in: Ratio Ki of `O=C(NCc1cccs1)C1=C(c2ccc(Cl)c(Cl)c2)CCC1` is ___
130

Using the record for `O=C(OCC(F)(F)F)C1=C(c2ccc(Cl)c(Cl)c2)CCC1` , report its Ratio Ki.
50

Quick check: Ratio Ki of `O=C(OC1CCCCC1)C1=C(c2ccc(Cl)c(Cl)c2)CCC1` ?
11

Look up Ratio Ki: `CC(C)OC(=O)C1=C(c2ccc(Cl)c(Cl)c2)CCC1`
10

Look up Ratio Ki for this compound: `CON(C)C(=O)C1=C(c2ccc(Cl)c(Cl)c2)CCC1`
39

What does the data say about its Ratio Ki? Entry: `Cc1ccccc1OC(=O)C1=C(c2ccc(Cl)c(Cl)c2)CCC1`
150

Fill blank: measured Ratio Ki of the compound `O=C(C1=C(c2ccc(Cl)c(Cl)c2)CCC1)N1CCCC1` is ____.
7
